All figures here come from PubChem BioAssay (NCI).

# Test system: A549 NSCLC
# testProtocol: NCI tumour cell line growth inhibition, 48 h
readoutType: GI50

Cc1ccc(NC(=O)CSc2nnc3n(Cc4ccccc4)c(=O)c4c(C)c(C(N)=O)sc4n23)cc1 | > 100 µM

Form field - read-out: GI50; system: A549 NSCLC; submitted item: COC(=O)C12OCC34C(CC5C(C)C6=CC(=O)OC6=CC5(C)C3C(O)C1O)OC(=O)C(O)C24 (centres undefined)
0.415 µM

Form field - read-out: GI50; system: A549 NSCLC; submitted item: `O=C(N/N=C/c1ccc(O)cc1O)c1cccc(Nc2ccnc(C(F)(F)F)c2)c1`
6.44 µM

###

# Test system: ACHN renal
# testProtocol: NCI tumour cell line growth inhibition, 48 h
Known TGI of a selection of compounds

Oc1c(Cl)cc(Cl)cc1C(c1cc(Cl)cc(Cl)c1O)C(Cl)(Cl)Cl | 12 µM
NS(=O)(=O)CC1CC[CH-]CC1.[Cl-].[Cl-].[Cl-].[Cl-].[Cl-].[Sb+5].c1ccncc1 | > 100 µM
O=C(O)c1c(=O)cccc2ssc12 | 3.21 µM
CCN(CC)Cc1ccc(C(=S)Nc2ccc(C)cc2)s1 | 39 µM

Next:
Form field - read-out: TGI; system: ACHN renal; submitted item: `[N-]=[N+]=NCCCn1c2c(c3ccc([N+](=O)[O-])cc3c1=O)C(=O)c1cc(F)ccc1-2`
1.55 µM

###

# Tested on: SF-539 CNS
# testProtocol: NCI tumour cell line growth inhibition, 48 h
readoutType: TGI (µM)
Give the value in µM but do not write µM after it.

CCOc1ccccc1-c1nc2c(s1)C(=O)c1ccccc1C2=O | 40.9

Next:
# get_value(readout='TGI', item= CC(=O)OCC1OC(O[C@@H]2C[C@H]3C(C)(C)[C@@H](OC(C)=O)CC[C@]3(C)[C@H]3CC[C@]45C[C@]4(CC[C@H]5[C@@H](C)C[C@@H](O)[C@H](O)C(C)(C)F)[C@@]32C)C(O)C(O)C1O (stereo not given in full) )
3.51

###

# Test system: UACC-62 melanoma
# testProtocol: NCI tumour cell line growth inhibition, 48 h; in the data active means GI50 below about 0.43 µM; inactive means the rest
Give your call using only these classes: YES for active, NO for inactive

Field: example entries. Status: answers known.
Oc1c(Cl)cc(Cl)cc1C(c1cc(Cl)cc(Cl)c1O)C(Cl)(Cl)Cl | NO
CCn1c(-c2nonc2N)nc2c(C#CC(C)(C)O)ncc(OC[C@H]3CCCNC3)c21 | NO
NS(=O)(=O)NCCNc1nonc1C(=Nc1ccc(F)c(Br)c1)NO | NO
C/C(O)=C(\C#N)C(=O)Nc1ccc(C(F)(F)F)cc1 | NO
Fc1cccc(-n2ccc(-c3ccccc3)nc2=S)c1 | NO

Outcome? `COc1cc(-c2csc(NC(=O)Nc3ccc(C(F)(F)F)cc3)n2)cc(OC)c1OC`
NO

Outcome? O=C(/C=C/C12c3ccccc3C(c3ccccc31)C1C(=O)NC(=O)C12)c1ccc(F)cc1 (centres undefined)
NO

Outcome? `CC(=O)O[C@H](C[C@H](C(C)C)N(C)C(=O)[C@@H](NC(=O)[C@H]1CCCN1C)C(C)C)c1nc(C(=O)N[C@@H](Cc2ccccc2)C[C@H](C)C(=O)O)c(C)s1`
YES

Outcome? `O=C(Nc1cccc(Cl)c1)c1cccc(NC2=C(Cl)C(=O)N(Cc3ccccc3)C2=O)c1`
NO

###

# Test system: A498 renal
# testProtocol: NCI tumour cell line growth inhibition, 48 h
readoutType: TGI

COC(=O)c1cc2c3ccccc3[nH]c2c2sccc12 | 50.6 µM
CN(C(=O)C1=CCC2(CC1)OCCO2)c1ccccc1I | > 100 µM
CCCCCCCCCCCCCCCCCCOCC(CCP(=O)(CP(=O)(O)O)Oc1ccccc1)OCCCCCCCCCCCCCCCCCC (stereo unspecified) | > 100 µM
CCC(=O)Nc1ccc(C)c(-c2ccc(C(=O)NCC3CC3)cc2)c1 | > 25 µM
CCOC(=O)c1cnc2c(ccc3ncccc32)c1NCCCN(CC)CC | > 100 µM
CCCCCCCCCNC(=O)/C=C/c1ccc(O)c(O)c1 | 32.1 µM
c1ccc(C(=NCCC2CNc3ccccc32)c2ccccc2)cc1 (stereo unspecified) | > 100 µM
O=C(NC(Cc1cnc[nH]1)C(=O)N1CCCC1)C1CCCC1 (stereo unspecified) | > 100 µM

# get_value(readout='TGI', item= `O=C(NNC(=S)NCc1ccccc1)c1csc(NC(=S)NC2CCCCC2)n1` )
> 100 µM

# get_value(readout='TGI', item= CN1C(=O)C(O)CC1c1ccccc1C(F)(F)F (stereo unspecified) )
> 100 µM

# get_value(readout='TGI', item= `CO/N=C\c1cc(O)c(O)c(/C=N/OC)c1` )
> 100 µM

###

# Test system: SNB-75 CNS
# testProtocol: NCI tumour cell line growth inhibition, 48 h
readoutType: TGI (µM)
Give the value in µM but do not write µM after it.

CCc1ccc(C(=Nc2ccc(N(C)C(=O)CN3CCN(C)CC3)cc2)c2c(O)[nH]c3ccc(C(=O)OC)cc23)cc1 | 1.52

# get_value(readout='TGI', item= `CC(=O)[CH-]C(=O)c1ccccc1.CC(=O)[CH-]C(=O)c1ccccc1.Cc1cc([O-])ccc1Cl.Cc1cc([O-])ccc1Cl.[Ti+4]` )
69.1

# get_value(readout='TGI', item= O/N=C1/CC2(N3CCOCC3)C3CC/C(=N\O)C2CC1(Cc1ccccc1)C3 (centres undefined) )
96

###

# Test system: HOP-92 NSCLC
# testProtocol: NCI tumour cell line growth inhibition, 48 h; in the data active = GI50 below about 0.43 µM; inactive = the rest
Give your call using only these classes: active, inactive

C/C(=C\c1cc(C(F)(F)F)n(-c2ccc(N)cc2)n1)[C@@H]1C[C@@H]2O[C@]2(C)CCC[C@H](C)[C@H](O)[C@@H](C)C(=O)C(C)(C)[C@@H](O)CC(=O)O1 | active
COC(=O)c1cc2c3ccccc3[nH]c2c2sccc12 | inactive
O=C(O)c1c(=O)cccc2ssc12 | inactive
CC([C@H]1CCC2C3CCC4C[C@@H](N)CC[C@]4(C)C3CC[C@@]21C)N(C)C (some centres undefined) | inactive

Outcome? `Cc1cc(-c2ccccn2)cc(C)c1/C=C/c1cncc(-c2nn[nH]n2)c1`
inactive

Outcome? `NS(=O)(=O)c1ccc(N(/C=C/C(=O)C(F)(F)F)Cc2ccc(Cl)cc2)cc1`
inactive

Outcome? O=C(/C=C/C12c3ccccc3C(c3ccccc31)C1C(=O)NC(=O)C12)c1ccc(F)cc1 (centres undefined)
inactive

Outcome? CCOC(=O)C1=C(C)N(Cc2ccc(Cl)cc2Cl)C2(O)C=CC(=O)C3=C(O)c4ccccc4C(=O)C312 (centres undefined)
inactive

Outcome? `CCN(CC)C(=S)SCN1C(=O)c2ccccc2S1(=O)=O`
inactive

###

# Tested on: DU-145 prostate
# testProtocol: NCI tumour cell line growth inhibition, 48 h
Known TGI of a selection of compounds
Give the value in µM but do not write µM after it.

Worked cases, answers included:
Clc1ccccc1CNc1c2ccccc2nc2ccccc12 | 8.58
O=S1(=O)OCCOS(=O)(=O)C1Cc1cccc2ccccc12 | 31.1
COC(=O)C1=C(C)NC(C)=C(C(=O)OC)C1c1ccc(N=O)cc1 | 19.2
C=C1C(=O)OC2C3C(=C)[C@@H](OC(C)=O)CC3C(C)=CC(OC(=O)C(C)(OC(C)=O)C(C)OC(C)=O)[C@@H]12 (stereo not given in full) | 30.5

Next:
# get_value(readout='TGI', item= `N#CC(C#N)N=Nc1ccc(-c2nc3ccccc3o2)cc1` )
31.5

###

# Tested on: OVCAR-3 ovarian
# testProtocol: NCI tumour cell line growth inhibition, 48 h
Known GI50 of a selection of compounds

OCCNc1nc(Nc2ccc(Cl)c(Cl)c2)nc2ccccc12 | 7.51 µM
CCc1ccc(C(=Nc2ccc(N(C)C(=O)CN3CCN(C)CC3)cc2)c2c(O)[nH]c3ccc(C(=O)OC)cc23)cc1 | 0.538 µM
Cc1ccc(NC(=O)CSc2nnc3n(Cc4ccccc4)c(=O)c4c(C)c(C(N)=O)sc4n23)cc1 | > 100 µM
CN1CCN(c2ccc(NC(=O)c3cncnc3Nc3ccc(OCc4ccccn4)c(Cl)c3)cc2)CC1 | 5.23 µM

Form field - read-out: GI50; system: OVCAR-3 ovarian; submitted item: `Cc1cc(N2CCOCC2)nc(N(CCCNc2ccnc3cc(Cl)ccc23)Cc2ccco2)n1`
1.81 µM

###

# Tested on: CAKI-1 renal
# testProtocol: NCI tumour cell line growth inhibition, 48 h
readoutType: TGI

Worked cases, answers included:
CCN(CCCl)c1cc(CN(C)C)cc(NC(=O)C23CCC(C(=O)Nc4cc(CN(C)C)cc(N(CC)CCCl)c4)(CC2)CC3)c1 | 23.2 µM
CCCCCCCCCNC(=O)/C=C/c1ccc(O)c(O)c1 | 24.2 µM
C[N+](C)(C)CC(=O)N/N=C(\C(=O)NC1=C(Cl)C(=O)c2ccccc2C1=O)C(C#N)c1nc(-c2ccc([N+](=O)[O-])cc2)cs1 (centres undefined) | 48.6 µM
CN1C(=O)C(O)CC1c1ccccc1C(F)(F)F (centres undefined) | > 100 µM
CSC(=S)OC1CC(n2cnc3c(NC(=O)c4ccccc4)ncnc32)OC1CO[Si](C)(C)C(C)(C)C (centres undefined) | > 46.4 µM

# get_value(readout='TGI', item= Cc1ccc(OCC2OC(n3cnc4c(Cl)nc(Cl)nc43)CC2Oc2ccc(C)cc2)cc1 (centres undefined) )
2.96 µM

# get_value(readout='TGI', item= O=C(NC(Cc1cnc[nH]1)C(=O)N1CCCC1)C1CCCC1 (centres undefined) )
> 100 µM

# get_value(readout='TGI', item= CCOC(=O)C(CC/C=C\c1ccccc1)N1CCC[C@H]1C(=O)OC (some centres undefined) )
> 100 µM

# get_value(readout='TGI', item= C=C1C(OC(=O)/C=C/c2ccccc2)CC(OC(C)=O)C2(C)C1CC1CC(OC(C)=O)C(C)=C(C(OC(C)=O)C2OC(C)=O)C1(C)C (centres undefined) )
> 100 µM
